Measured IC50 accompanies every entry in the list below.
Molecular target: Human Factor XIIa (Homo sapiens, UniProt P00748)

Look up and report measured IC50 (Human Factor XIIa (Homo sapiens, UniProt P00748)) for the following compound: Nc1nccc2cc(CNC(=O)c3cnc(NC4CCCC4)c(Cl)c3)ccc12 [Example 11.01]
10 to 40 µM

Look up and report measured IC50 (Human Factor XIIa (Homo sapiens, UniProt P00748)) for the following compound: Nc1nccc2cc(CNC(=O)c3cnc(N4CCN(c5ccncc5)CC4)c(Cl)c3)ccc12 [Example 8.08]
10 to 40 µM

* * *

Target: Human Factor XIIa (Homo sapiens)
Sequence (P00748 373-615 limits assumed): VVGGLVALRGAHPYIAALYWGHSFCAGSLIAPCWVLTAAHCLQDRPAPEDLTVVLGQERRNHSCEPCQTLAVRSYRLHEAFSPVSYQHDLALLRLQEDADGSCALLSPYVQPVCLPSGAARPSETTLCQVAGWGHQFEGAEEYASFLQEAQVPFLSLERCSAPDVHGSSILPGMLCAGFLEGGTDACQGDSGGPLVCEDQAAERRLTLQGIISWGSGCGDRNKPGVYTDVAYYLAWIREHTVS
Sequence (P00748 20-372 partner limits assumed): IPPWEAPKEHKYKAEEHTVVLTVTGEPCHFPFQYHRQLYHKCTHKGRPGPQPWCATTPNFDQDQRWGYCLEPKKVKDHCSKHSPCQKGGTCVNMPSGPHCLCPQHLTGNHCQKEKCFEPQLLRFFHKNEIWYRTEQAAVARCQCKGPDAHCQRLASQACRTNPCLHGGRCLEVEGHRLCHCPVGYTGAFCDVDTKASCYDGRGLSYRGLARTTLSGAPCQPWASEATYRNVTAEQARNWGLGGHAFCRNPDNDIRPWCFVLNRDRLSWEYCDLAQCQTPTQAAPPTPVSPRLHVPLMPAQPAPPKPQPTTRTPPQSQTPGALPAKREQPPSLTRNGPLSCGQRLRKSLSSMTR
Recorded Endpoint: IC50

[[record]]
molecule = "CC(C)N1CCC(CNc2ncc(Cl)cc2C(=O)NCc2ccc3c(N)nccc3c2)CC1"
recorded_endpoint = "IC50"
result = "0.3 to 1 µM"

[[record]]
molecule = "CN1CCC(CNc2nccnc2C(=O)Nc2ccc3nc[nH]c(=O)c3c2)CC1"
recorded_endpoint = "IC50"
result = "10 to 40 µM"

[[record]]
molecule = "Nc1nccc2cc(CNC(=O)c3cnc(Oc4cccc(N5CCOCC5)c4)c(Cl)c3)ccc12"
recorded_endpoint = "IC50"
result = "10 to 40 µM"

[[record]]
molecule = "CN(C)CCCOc1cccc(CNc2ncc(Cl)cc2C(=O)NCc2ccc3c(N)nccc3c2)c1"
recorded_endpoint = "IC50"
result = "1 to 3 µM"


Note: attention shifts to another entry.
Hello, please tell me recorded IC50 for this one: Nc1nccc2cc(CNC(=O)c3cc(Cl)cnc3NCCN3CCS(=O)(=O)CC3)ccc12
3 to 10 µM

* * *

Molecular target: UniProt P00748
Sequence (P00748 373-615 limits assumed): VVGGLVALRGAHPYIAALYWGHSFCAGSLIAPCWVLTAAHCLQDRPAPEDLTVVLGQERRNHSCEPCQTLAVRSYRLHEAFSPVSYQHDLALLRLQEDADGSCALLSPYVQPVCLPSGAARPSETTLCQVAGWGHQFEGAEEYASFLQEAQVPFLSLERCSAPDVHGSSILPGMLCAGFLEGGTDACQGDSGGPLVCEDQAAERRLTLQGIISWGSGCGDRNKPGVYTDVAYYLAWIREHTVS
Sequence (P00748 20-372 partner limits assumed): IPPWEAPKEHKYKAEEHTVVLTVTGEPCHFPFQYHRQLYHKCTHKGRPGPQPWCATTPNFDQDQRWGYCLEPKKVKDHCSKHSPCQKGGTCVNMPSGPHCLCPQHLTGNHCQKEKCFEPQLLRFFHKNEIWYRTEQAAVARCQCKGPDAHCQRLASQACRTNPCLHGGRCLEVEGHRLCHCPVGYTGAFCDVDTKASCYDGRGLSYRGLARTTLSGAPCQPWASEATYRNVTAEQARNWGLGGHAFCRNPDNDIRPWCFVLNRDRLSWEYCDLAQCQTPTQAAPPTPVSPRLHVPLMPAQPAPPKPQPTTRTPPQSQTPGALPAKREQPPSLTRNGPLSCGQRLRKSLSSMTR
pIC50: −log10 of the molar value.
Recorded Endpoint: pIC50

Example entries and their recorded answers appear below.
[[record]]
entry_smiles = "CC(C)N(CCNc1ncc(C(=O)NCc2ccc3c(N)nccc3c2)cc1Cl)C(C)C"
result = "5.52 to 6.00"

[[record]]
entry_smiles = "Nc1nccc2cc(CNC(=O)c3cc(Cl)cnc3N3CCN(c4ccncc4)CC3)ccc12"
result = "4.40 to 5.00"

[[record]]
entry_smiles = "COc1ccccc1-c1cncc(C(=O)NCc2ccc3c(N)nccc3c2)c1"
result = "4.40 to 5.00"

[[record]]
entry_smiles = "Nc1nccc2cc(CNC(=O)c3cnc4[nH]ccc4c3)ccc12"
result = "4.40 to 5.00"

[[record]]
entry_smiles = "COc1ccc(-n2cc(C(=O)O)nn2)c(CNC(=O)c2nccnc2NCC2CCN(C)CC2)c1F"
result = "4.40 to 5.00"

[[record]]
entry_smiles = "Nc1nccc2cc(CNC(=O)c3cc(Cl)cnc3NCC3CCN(Cc4ccccc4)CC3)ccc12"
result = "5.52 to 6.00"

[[record]]
entry_smiles = "CN(C)CCCOc1cccc(CN(C)c2ncc(C(=O)NCc3ccc4c(N)nccc4c3)cc2Cl)c1"
result = "4.40 to 5.00"


Note: attention shifts to another entry.
Hello, please tell me recorded pIC50 for this one: Nc1nccc2cc(CNC(=O)c3cc(Cl)cnc3NCCn3ccnc3)ccc12
5.00 to 5.52
